Taken from patent US20200247894A1.

Biological target: T1, Human IL2Rγ extracellular domain expressed with a C-terminal mouse IgG2a Fc tag (human)
T1 construct: whole entry is the Fc-fused construct; also called hIL-2Rg-mFc
T1 chain: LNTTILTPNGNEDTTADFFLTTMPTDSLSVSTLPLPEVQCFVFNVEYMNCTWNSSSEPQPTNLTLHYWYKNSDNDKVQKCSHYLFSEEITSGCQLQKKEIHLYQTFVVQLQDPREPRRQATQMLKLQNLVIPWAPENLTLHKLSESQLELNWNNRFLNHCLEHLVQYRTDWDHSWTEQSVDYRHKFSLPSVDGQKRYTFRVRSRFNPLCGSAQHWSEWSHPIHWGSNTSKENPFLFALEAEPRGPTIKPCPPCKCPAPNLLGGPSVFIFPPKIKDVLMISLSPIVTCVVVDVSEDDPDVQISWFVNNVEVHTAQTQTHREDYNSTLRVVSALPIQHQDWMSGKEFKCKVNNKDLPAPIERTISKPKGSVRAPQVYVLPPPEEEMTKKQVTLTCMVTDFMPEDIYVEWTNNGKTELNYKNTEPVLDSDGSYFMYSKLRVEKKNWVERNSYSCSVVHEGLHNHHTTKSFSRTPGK
Test: SPR Biacore 4000, anti-hFc-captured mAb, 37 C
measured endpoint: koff (s⁻¹)
I only need the number, in s⁻¹, no unit after it.

Exercise: Request the reported koff associated with H4H12886P (antibody, human IgG4 S228P, kappa, V domains shown, fully human anti-IL2Rgamma mAb, human IgG4 Fc) VH: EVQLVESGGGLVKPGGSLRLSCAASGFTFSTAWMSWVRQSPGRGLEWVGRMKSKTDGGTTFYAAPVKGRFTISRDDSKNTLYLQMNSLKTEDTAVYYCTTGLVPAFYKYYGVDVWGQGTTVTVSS VL: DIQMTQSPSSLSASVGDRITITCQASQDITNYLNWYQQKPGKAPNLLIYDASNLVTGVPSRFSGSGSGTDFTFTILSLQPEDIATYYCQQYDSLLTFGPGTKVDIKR
Key: 9.09e-05

Exercise: Request the reported koff associated with H4H13541P (antibody, human IgG4 S228P, kappa, V domains shown, fully human anti-IL2Rgamma mAb, human IgG4 Fc) VH: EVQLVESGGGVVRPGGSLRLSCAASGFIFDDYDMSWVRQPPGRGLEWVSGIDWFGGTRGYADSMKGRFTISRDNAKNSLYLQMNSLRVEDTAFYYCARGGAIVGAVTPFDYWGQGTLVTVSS VL: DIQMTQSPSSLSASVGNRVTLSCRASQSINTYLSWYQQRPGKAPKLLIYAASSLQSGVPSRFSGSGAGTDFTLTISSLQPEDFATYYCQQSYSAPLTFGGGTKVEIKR
Key: 0.000122

Exercise: Request the reported koff associated with H4H12884P (antibody, human IgG4 S228P, kappa, V domains shown, fully human anti-IL2Rgamma mAb, human IgG4 Fc) VH: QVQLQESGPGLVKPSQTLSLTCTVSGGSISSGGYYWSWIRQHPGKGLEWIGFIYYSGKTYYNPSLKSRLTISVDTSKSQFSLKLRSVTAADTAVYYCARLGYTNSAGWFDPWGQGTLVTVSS VL: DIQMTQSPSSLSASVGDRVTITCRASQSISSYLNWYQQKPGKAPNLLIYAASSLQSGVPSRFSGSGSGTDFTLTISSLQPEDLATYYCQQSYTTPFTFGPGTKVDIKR
Key: 2.69e-05
